Reported stoichiometry N values follow for various proteins
Target: the molecule itself
Test Description: dynamic light scattering

{"Protein": "AGT LM p.S81A (enzyme, human) MASHKLLVTPLKALLKPLSIPNQLLLGPGPSNLPPRIMAAGGLQMIGSMSKDMYQIMDEIKEGIQYVFQTRNPLTLVISGAGHCALEAALVNVLEPGDSFLVGANGIWGQRAVDIGERIGARVHPMTKDPGGHYTLQEVEEGLAQHKPVLLFLTHGESSTGVLQPLDGFGELCHRYKCLLLVDSVASLGGTPLYMDRQGIDILYSGSQKALNAPPGTSLISFSDKAKKKMYSRKTKPFSFYLDIKWLANFWGCDDQPRMYHHTIPVISLYSLRESLALIAEQGLENSWRQHREAAAYLHGRLQALGLQLFVKDPALRLPTVTTVAVPAGYDWRDIVSYVMDHFDIEIMGGLGPSTGKVLRIGLLGCNATRENVDRVTEALRAALQHCPKKKL", "stoichiometry N": 2}
{"Protein": "AGT LM (enzyme, human) MASHKLLVTPLKALLKPLSIPNQLLLGPGPSNLPPRIMAAGGLQMIGSMSKDMYQIMDEIKEGIQYVFQTRNPLTLVISGSGHCALEAALVNVLEPGDSFLVGANGIWGQRAVDIGERIGARVHPMTKDPGGHYTLQEVEEGLAQHKPVLLFLTHGESSTGVLQPLDGFGELCHRYKCLLLVDSVASLGGTPLYMDRQGIDILYSGSQKALNAPPGTSLISFSDKAKKKMYSRKTKPFSFYLDIKWLANFWGCDDQPRMYHHTIPVISLYSLRESLALIAEQGLENSWRQHREAAAYLHGRLQALGLQLFVKDPALRLPTVTTVAVPAGYDWRDIVSYVMDHFDIEIMGGLGPSTGKVLRIGLLGCNATRENVDRVTEALRAALQHCPKKKL", "stoichiometry N": 2}
